Experiment: Quantitative high throughput screen for delayed death inhibitors of the malarial parasite plastid, 48 hour incubation (AID 488752); note: nearly all actives have a fitted effect of over 65% in size
Conditions: Plasmodium falciparum growth; series mostly up to 28.7 µM
From the text: NIH Molecular Libraries Probe Production Network [MLPCN] NIH Chemical Genomics Center [NCGC] Assay Provider: David Fidock and Eric Ekland, Columbia University […] We have developed a cell-based assay that measures parasite growth based on the expression of an integrated copy of a firefly luciferase reporter. […] Growth inhibition is detected by a decrease in luciferase activity […]
Records with an inconclusive call do not appear. The source made the active and inactive calls. Calls come from the whole dose curve; as a rule, active = well fitted inhibition curve with a large enough effect; inconclusive = small, poorly fitted or top-dose-only effect, or effect the other way; inactive = flat fitted curve, though single readings scatter.
Answer with one of the outcomes yes for active, no for inactive

Examples from the recorded data:
>>> label_value("CC(C)(Oc1ccc(C2CC2(Cl)Cl)cc1)C(=O)O (configuration not stated)")
"no"
>>> label_value("COc1nc(C)nc(Cl)c1NC1=NCCN1")
"no"
>>> label_value("CC(COc1ccccc1)N(CCCl)Cc1ccccc1 (configuration not stated)")
"no"

Enquiry: Kindly provide the recorded test outcome for the following molecule: C[C@](N)(Cc1ccc(O)c(O)c1)C(=O)O
Return: no

Enquiry: Would you kindly repeat that for O=C1c2c(O)ccc(O)c2C(=O)c2c(NCCNCCO)ccc(NCCNCCO)c21 ?
Return: yes

Enquiry: Another molecule to check: CN1C2CCC1CC(OC(=O)C(CO)c1ccccc1)C2 (configuration not stated)
Return: no

Enquiry: And what about the molecule CN(C)CCOC(c1ccccc1)c1ccccc1 ?
Return: no

====

Target: D(1A) dopamine receptor (Homo sapiens)
Test: HTS Assay for Allosteric Agonists of the Human D1 Dopamine Receptor: Primary Screen for Agonists (AID 488981); note: 0% is about no effect
Conditions: Inducible HEK293 T-REx D1 cells, calcium-flux fluorescence, 180 s kinetic; series mostly up to 41.8 µM
Results filed as inconclusive are left out. Calls of active or inactive are those of the source. The call rests on the fitted dose curve; in most records, active means well fitted activation curve with a large enough effect; inconclusive means small, poorly fitted or top-dose-only effect; inactive means flat fitted curve, though single readings scatter.
Outcome Measure: outcome

Below: 5 compounds and their reported outcome.
>>> observed_result("CN1CCC(=C2c3ccccc3C=Cc3ccccc32)CC1")
"inactive"
>>> observed_result("CN(Cc1cnc2nc(N)nc(N)c2n1)c1ccc(C(=O)N[C@@H](CCC(=O)O)C(=O)O)cc1")
"inactive"
>>> observed_result("COc1ccc2[nH]cc(CCNC(C)=O)c2c1")
"inactive"
>>> observed_result("CC(CCc1ccc(O)cc1)NCCc1ccc(O)c(O)c1 (stereo unspecified)")
"inactive"
>>> observed_result("COc1cc2nc(N3CCN(C(=O)c4ccco4)CC3)nc(N)c2cc1OC")
"inactive"

Enquiry: What value of measured outcome is listed for CCC1(c2ccccc2)C(=O)NCNC1=O ?
Return: inactive

Enquiry: Ok, now C[C@H]1c2cccc(O)c2C(O)=C2C(=O)[C@]3(O)C(O)=C(C(N)=O)C(=O)[C@@H](N(C)C)[C@@H]3[C@@H](O)[C@@H]21
Return: inactive

Enquiry: How about this compound: COc1ccccc1N1CCN(CC(O)COc2cccc3ccccc23)CC1 (stereo unspecified)
Return: inactive

Enquiry: What do you have for COc1ccc(C2CNC(=O)C2)cc1OC1CCCC1 (stereo unspecified) ?
Return: inactive

Enquiry: Follow-up item: CN1C2CCC1CC(OC(=O)C(CO)c1ccccc1)C2 (stereo unspecified)
Return: inactive

Enquiry: What about this compound? CC(COc1ccccc1)N(CCCl)Cc1ccccc1 (stereo unspecified)
Return: inactive

====

Experiment: Quantitative High-Throughput drug screen in 47 multiple myeloma cell lines against the NCATS MIPE library collection: PCM6_Riken cell viability assay (AID 1919870); note: nearly all actives have a fitted effect of over 30% in size
Conditions: CellTiter-Glo ATP, 48 h; series mostly up to 45.8 µM
Records with an inconclusive call do not appear. Activity calls are given as the source filed them. Calls come from the whole dose curve; as a rule, active = well fitted cell-killing curve with a large enough effect; inconclusive = small, poorly fitted or top-dose-only effect, or effect the other way; inactive = no such curve, though single readings can be large or run the other way.
Answer with one of the outcomes active, inactive

Field: example entries. Status: answers known.
>>> label_value("CN(C)CCCN1c2ccccc2CCc2ccc(Cl)cc21")
"active"
>>> label_value("CN1CCC(=C2c3ccccc3C=Cc3ccccc32)CC1")
"active"
>>> label_value("CN(C)CCOC(c1ccccc1)c1ccccc1")
"active"
>>> label_value("COc1cc2nc(N3CCN(C(=O)C4COc5ccccc5O4)CC3)nc(N)c2cc1OC (configuration not stated)")
"active"
>>> label_value("Cc1cn([C@H]2C[C@H](N=[N+]=[N-])[C@@H](CO)O2)c(=O)[nH]c1=O")
"active"
>>> label_value("Fc1ccc([C@@H]2CCNC[C@H]2COc2ccc3c(c2)OCO3)cc1")
"inactive"
>>> label_value("Nc1c2c(nc3ccccc13)CCCC2")
"inactive"
>>> label_value("O=c1c(-c2ccc(O)cc2)coc2cc(O)cc(O)c12")
"active"

Enquiry: Please indicate how the test categorized Cn1c(=O)c2c(ncn2C)n(C)c1=O .
Return: inactive

Enquiry: Then what about the compound CN1C(C(=O)Nc2ccccn2)=C(O)c2ccccc2S1(=O)=O ?
Return: inactive

Enquiry: Try CC(C)NCC(O)COc1ccc(CCOCC2CC2)cc1 (configuration not stated) next.
Return: inactive

Enquiry: Then this compound: O=C1Cc2cc(CCN3CCN(c4nsc5ccccc45)CC3)c(Cl)cc2N1
Return: active

====

System: TAB165
Assay: qHTS profiling for inhibitors of Plasmodium falciparum proliferation (AID 504749); note: nearly all actives have a fitted effect of over 60% in size
Details: P. falciparum in erythrocytes, SYBR Green DNA, 72 h; series mostly up to 28.7 µM
Records with an inconclusive call do not appear. Active and inactive are the calls of the source. Calls come from the whole dose curve; as a rule, active = well fitted inhibition curve with a large enough effect; inconclusive = small, poorly fitted or top-dose-only effect; inactive = flat fitted curve, though single readings scatter.
Please state which outcome applies, choosing from active, inactive

Reference set (5 entries):
>>> label_value("Cc1cn([C@H]2C=C[C@@H](CO)O2)c(=O)[nH]c1=O")
"inactive"
>>> label_value("COC(=O)Nc1nc2ccc(C(=O)c3cccs3)cc2[nH]1")
"inactive"
>>> label_value("Cc1cc(C(C)(C)C)c(O)c(C)c1CC1=NCCN1")
"inactive"
>>> label_value("Nc1nc2c(ncn2COC(CO)CO)c(=O)[nH]1")
"inactive"
>>> label_value("CC(C)(C)C(=O)Oc1ccc(S(=O)(=O)Nc2ccccc2C(=O)NCC(=O)O)cc1")
"inactive"

Field: next compound
Enquiry: Hi team, can someone confirm the assay call for Clc1ccccc1C(c1ccccc1)(c1ccccc1)n1ccnc1 ?
Return: active

====

Experiment: Cell Viability qHTS for small molecule stabilizers of the endoplasmic reticulum resident proteome (AID 1508629);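 note: human SH-SY5Y neuroblastoma cells carrying the GLuc-SERCaMP reporter; compound exposure about 46 h in total before the viability read; % is set by controls: 0 for no effect and ±100 for the full control effect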
Conditions: cell viability counter-screen, 100 nM thapsigargin for final 4 h
Records with an inconclusive call do not appear. Calls of active or inactive are those of the source. Calls come from the whole dose curve; as a rule, active = well fitted cell-killing curve with a large enough effect; inconclusive = small, poorly fitted or top-dose-only effect, or effect the other way; inactive = no such curve, though single readings can be large or run the other way.
Outcome Measure: max response

>>> observed_result("CC12CC3CC(C)(C1)CC(N)(C3)C2")
"23.1% (inactive)"
>>> observed_result("Clc1ccc2c(c1)C(N1CCNCC1)=Nc1ccccc1O2")
"-4.18% (inactive)"
>>> observed_result("Cn1c(=O)c2c(ncn2C)n(C)c1=O")
"8.95% (inactive) [middle of 5 runs]"
>>> observed_result("CN1CCC(=C2c3ccccc3CC(=O)c3sccc32)CC1")
"19.1% (inactive)"
>>> observed_result("CN(C)CCCN1c2ccccc2CCc2ccc(Cl)cc21")
"-4.23% (inactive)"

Next up:
Enquiry: Reported max response for C[C@@H]1CC(=O)NN=C1c1ccc(NN=C(C#N)C#N)cc1 : what is it?
Return: -18.7% (inactive)

====

Test system: HeLa
Test: Primary qHTS to identify gynecologic anti-cancer compounds using libraries of approved drugs and bioactive compounds (AID 1345084); note: nearly all actives have a fitted effect of over 55% in size
Settings: Gynecologic cancer cell panel viability, ATPlite luminescence, 48 h; series mostly up to 57.5 µM
Results filed as inconclusive are left out. Activity calls are given as the source filed them. Calls come from the whole dose curve; as a rule, active = well fitted cell-killing curve with a large enough effect; inconclusive = small, poorly fitted or top-dose-only effect, or effect the other way; inactive = flat fitted curve, though single readings scatter.
API: response.call in y for active, n for inactive

Known results for compounds:
>>> label_value("CN1CCN2c3ccccc3Cc3ccccc3C2C1 (stereo unspecified)")
"n"
>>> label_value("CCCNCC(O)COc1ccccc1C(=O)CCc1ccccc1 (stereo unspecified)")
"n"
>>> label_value("COC(=O)Nc1nc2ccc(C(=O)c3cccs3)cc2[nH]1")
"y"
>>> label_value("CN(C)C(=N)N=C(N)N")
"n"

Enquiry: Can you look up the reported call for CC[C@@]1(O)C(=O)OCc2c1cc1n(c2=O)Cc2cc3c(CN(C)C)c(O)ccc3nc2-1 for me?
Return: n

Enquiry: Can you check COc1ccc(C2CNC(=O)C2)cc1OC1CCCC1 (stereo unspecified) next?
Return: n

Enquiry: # repeat for Cc1ccc(C(=O)Nc2ccc(S(=O)(=O)O)c3cc(S(=O)(=O)O)cc(S(=O)(=O)O)c23)cc1NC(=O)c1cccc(NC(=O)Nc2cccc(C(=O)Nc3cc(C(=O)Nc4ccc(S(=O)(=O)O)c5cc(S(=O)(=O)O)cc(S(=O)(=O)O)c45)ccc3C)c2)c1
Return: n

Enquiry: Subsequent entry: NC(CO)C(=O)NNCc1ccc(O)c(O)c1O (stereo unspecified)
Return: n

Enquiry: Same thing, different compound: O=c1[nH]cc(F)c(=O)[nH]1
Return: n

Enquiry: Please do the same for NC(=O)NO as well.
Return: n

Enquiry: And what about the compound CC1COc2c(N3CCN(C)CC3)c(F)cc3c(=O)c(C(=O)O)cn1c23 (stereo unspecified) ?
Return: n

Where do the numbers come from? From PubChem BioAssay (NCATS).
